PROTOCOL SUMMARY: qHTS of pediatric cancer cell lines to identify multiple opportunities for drug repurposing: Primary screen for OHS-50 cells (AID 1347103); also: nearly all actives have a fitted effect of over 40% in size
CONDITION SET: OHS-50 osteosarcoma viability, CellTiter-Glo luminescence, 48 h; series mostly up to 57.3 µM
Results filed as inconclusive are left out. Active and inactive are the calls of the source. Calls follow the shape of the dose curve; as a rule, active = well fitted cell-killing curve with a large enough effect; inconclusive = small, poorly fitted or top-dose-only effect; inactive = no such curve, though single readings can be large or run the other way.
Outcome codes: true (active), false (inactive)

{"COMPOUND": "Oc1c(Br)cc(Br)cc1Br", "LABEL": "false"}
{"COMPOUND": "CCCCCCCCC(=O)NCc1ccc(O)c(OC)c1", "LABEL": "true"}
{"COMPOUND": "COC(=O)C1=CCCN(C)C1", "LABEL": "false"}
{"COMPOUND": "N#Cc1nn(-c2c(Cl)cc(C(F)(F)F)cc2Cl)c(N)c1S(=O)C(F)(F)F (configuration not stated)", "LABEL": "true"}
{"COMPOUND": "CCN(CC)C(C)C(=O)c1ccccc1 (configuration not stated)", "LABEL": "false"}
{"COMPOUND": "Oc1ccc([C@H]2CNCc3c2ccc(O)c3O)cc1O", "LABEL": "false"}
{"COMPOUND": "COc1ccc(OC)c(CC(C)N)c1 (configuration not stated)", "LABEL": "false"}
